tested system: Bcl-xL (Homo sapiens, UniProt Q07817)
Construct: made in house
Sequence (Q07817 whole entry): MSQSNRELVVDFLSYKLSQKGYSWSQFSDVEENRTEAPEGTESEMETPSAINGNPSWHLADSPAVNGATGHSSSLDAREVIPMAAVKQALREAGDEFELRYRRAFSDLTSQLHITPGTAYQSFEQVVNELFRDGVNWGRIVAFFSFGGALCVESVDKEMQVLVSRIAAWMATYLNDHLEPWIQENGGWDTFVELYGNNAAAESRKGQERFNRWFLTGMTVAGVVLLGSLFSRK
assay overview: Fluorescence polarization-based competitive binding assay (FPA) with fluorescein-labeled Bad peptide
test context: Table 4, Purpurogallin derivatives; read-out: IC50 (μM) (Bcl-xL)
recorded metric: IC50 (µM)

COC(=O)c1cc(O)c(=O)c2cc(O)c(O)cc2c1 : 2.6

a = CCOC(=O)c1cc(O)c(=O)c2cc(O)c(O)cc2c1
b = O=C(O)c1cc(O)c(=O)c2cc(O)c(O)cc2c1
Query block: Lower value of IC50 belongs to which: a or b ? Use the label to indicate which entry you chose.
Result block: b
(b: 7.4 µM, a: 73 µM)

These data points were gathered from patent US8367644B2.
